# TEST PARAMETERS: [M-H]-; instrument: DT; single field, calibrated with Agilent tune mix (Agilent)
MEASURE NAME: collision cross section (N2) (Å²)

Example molecules with recorded collision cross section (N2):
Cn1c(=O)[nH]c(=O)c2[nH]cnc21 : 124.48
O=C1O[C@H]([C@@H](O)CO)[C@H](O)[C@@H]1O : 131.6
CO[C@@H]1[C@H](O)[C@@H](CO)O[C@H]1n1cnc2c(N)ncnc21 : 158.37
NC(Cc1ccccc1O)C(=O)O (racemic) : 134.25
CCCCCC(=O)O : 128.54
O=C(O)CNC(=O)c1cccnc1 : 138.08
CC(=O)[C@@H](O)[C@H](O)COP(=O)(O)O [1-Deoxy-D-xylulose 5-phosphate] : 134.48
O=P(O)(O)O[C@H]1O[C@H](CO)[C@@H](O)[C@H](O)[C@H]1O [alpha-D-Glucose 1-phosphate] : 145.48
CCCCCC(=O)NCC(=O)O : 144.64
C[C@H]1O[C@@H](n2cnc3c(N)ncnc32)[C@H](O)[C@@H]1O : 151.91

(A) Cc1cc2nc[nH]c2cc1C
(B) CCCCCCCCCCCCCCCCCC(=O)OC[C@H](O)[C@H]1OC(=O)C(O)=C1O [Ascorbyl stearate]
(C) CCCCCCCC/C=C\CCCCCCCC(=O)SCCNC(=O)CCNC(=O)[C@H](O)C(C)(C)COP(=O)(O)OP(=O)(O)OC[C@H]1O[C@@H](n2cnc3c(N)ncnc32)[C@H](O)[C@@H]1OP(=O)(O)O
Incoming: Sequence the entries by collision cross section (N2), beginning with the highest number. Please write the labels in the order that was asked for.
Outgoing: C, B, A

Source listed as the C3SDB collision cross section collection.
